Molecular target: T1, human Trop-2 (on the surface of human cell lines) (human, UniProt P09758 27-323)
T1 sequence: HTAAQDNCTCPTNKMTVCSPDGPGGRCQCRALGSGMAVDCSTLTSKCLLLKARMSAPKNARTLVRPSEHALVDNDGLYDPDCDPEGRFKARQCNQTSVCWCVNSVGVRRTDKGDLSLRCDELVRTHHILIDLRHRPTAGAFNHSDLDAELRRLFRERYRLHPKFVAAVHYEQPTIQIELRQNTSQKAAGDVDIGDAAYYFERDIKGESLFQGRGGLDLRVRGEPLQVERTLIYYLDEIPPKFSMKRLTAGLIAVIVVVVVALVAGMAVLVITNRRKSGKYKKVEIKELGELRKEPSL
Experiment: cell-based or functional assay
What ADCC, PBMC killing (LDH), H322, Maximum killing (%) was measured for each of the following?
Output should be the measured figure followed by the unit it is expressed in.

**Q:** Which measured ADCC, PBMC killing (LDH), H322, Maximum killing (%) value corresponds to ch-Ab2 (antibody, human IgG1, kappa, V domains shown, also called chimeric antibody of Ab2) VH: EVQLVESGPGLVAPSQSLSITCTVSGFSLTYYGIDWVRQPPGKGLEWLGVIWGSGNTKYNSALMSRLSISKDNSKSQVFLRMNSLQSDDTAIYYCARFYEGFAYWGQGTLVTVSA VL: AIVLTQSPSSMYASLGERVTITCKASQDINSYLSWFQQKPGKSPKTLIYRANRLVDGVPSRFSGSGSGQDYSLTISSLEYEDMGIYYCLQYDEFPLTFGVGTKLELKR ?
**A:** 48.1%

**Q:** For the binder shown here, hz-Ab21-2.1 (antibody, human IgG1, kappa, V domains shown, Humanized antibody) VH: EVQLVESGGGLVKPGGSLRLSCAASGFTLRNYGVHWVRQAPGKGLEWVGVIWSSGTTDYAAPVKGRFTISKDNSKNTLYLQMNSLKTEDTAVYYCTRDGDYDYYTMDYWGQGTLVTVSS VL: EIVLTQSPATLSLSPGERATLSCRASKSVSTSAYSYIHWYQQKPGQPPRLLIYLTSNLESGIPARFSGSGSGTDFTLTISSLEPEDFAVYYCQHSRELPYTFGQGTKVEIKR , give the reported ADCC, PBMC killing (LDH), H322, Maximum killing (%).
**A:** 44.5%
